Record form. Attribute: Max Response. Fill in for each entry.
Target: T1, human BKB2R-derived epitope peptide (SEQ ID NO:73), PEG-biotin (human, also: PEG-biotin, site not given here)
T1 construct: also called immunogenic human BKB2R peptide fragment
T1 peptide: KEYSDEGHNVTAC
Assay: BLI (Octet), peptide-PEG-biotin on streptavidin sensor, antibody 250 nM
Description: For the Octet study, antibodies were analyzed by kinetic titration of the antibodies. […] Sensor Prep: Streptavidin biosensors (FortéBio Inc, Menlo Park, Calif.) were coated by incubation in a solution containing a peptide ([…]-PEG-biotin) (Biosyn, Lewisville, Tex.) at 50 μg/ml (300 seconds/1000 rpm shaking). […] Octet system software calculated kinetic constants for on rate/off rate/affinity. […]
Where no end group is shown, it is not given here.
When you answer, write just the number.

Supply measured Max Response of chimeric/humanized anti-BKB2R antibody L2/HC (antibody, human IgG2, V domains shown, not shown: human IgG2 constant region) VH: EVKLEESGGGLVQPGGSMKLSCVVSGFTFSDYWMSWVRHSPEMGLEWVAEIRLKSDNYATHYAESVKGRFTISRDDSKSRLYLQINSLRGEDTGIYYCTRDYYAMEYWGQGTSVTVSS VL: DIVMTQSPLSLPVTPGEPASISCRSSQTIVHSNGKTYLEWYLQKPGQSPQLLIYKVSNRFSGVPDRFSGSGSGTEFTLKISRVEAEDVGVYYCFQASHVPYTFGQGTKLEIKR in your reply.
0.204

Supply measured Max Response of humanized anti-BKB2R antibody L1/H1 (antibody, human IgG2, kappa, V domains shown, also called H1/L1) VH: EVQLVESGGGLVQPGGSLRLSCAASGFTFSDYWMSWVRQAPGKGLEWVAEIRLKSDNYATHYAESVKGRFTISRDNAKNSLYLQMNSLRAEDTAVYYCTRDYYAMEYWGQGTLVTVSS VL: DIVMTQSPLSLPVTPGEPASISCRSSQTIVHSNGKTYLEWYLQKPGQSPQLLIYKVSNRFSGVPDRFSGSGSGTDFTLKISRVEAEDVGVYYCFQASHVPYTFGQGTKLEIKR in your reply.
0.286

Supply measured Max Response of humanized anti-BKB2R antibody L2/H1 (antibody, human IgG2, kappa, V domains shown) VH: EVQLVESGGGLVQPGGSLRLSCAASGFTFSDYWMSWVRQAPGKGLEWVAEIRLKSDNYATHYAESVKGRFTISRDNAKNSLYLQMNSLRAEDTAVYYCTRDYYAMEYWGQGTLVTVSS VL: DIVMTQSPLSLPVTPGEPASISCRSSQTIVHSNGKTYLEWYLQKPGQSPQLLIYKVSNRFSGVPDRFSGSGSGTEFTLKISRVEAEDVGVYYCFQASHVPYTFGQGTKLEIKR in your reply.
0.18
